Data credit: patent US20210214435A1

target: T1, mouse GPVI extracellular domain fused at its C-terminus to human IgG1 Fc (GPVI-Fc) (mouse; human); assay: Competition ELISA (MSD): mouse GPVI-Fc preincubated with Fab, then on coated CRP-XL (competitor)
T1 construct: also called mGPVI; mouse GPVI-Fc
T1 sequence (chain, as listed by the source limits assumed): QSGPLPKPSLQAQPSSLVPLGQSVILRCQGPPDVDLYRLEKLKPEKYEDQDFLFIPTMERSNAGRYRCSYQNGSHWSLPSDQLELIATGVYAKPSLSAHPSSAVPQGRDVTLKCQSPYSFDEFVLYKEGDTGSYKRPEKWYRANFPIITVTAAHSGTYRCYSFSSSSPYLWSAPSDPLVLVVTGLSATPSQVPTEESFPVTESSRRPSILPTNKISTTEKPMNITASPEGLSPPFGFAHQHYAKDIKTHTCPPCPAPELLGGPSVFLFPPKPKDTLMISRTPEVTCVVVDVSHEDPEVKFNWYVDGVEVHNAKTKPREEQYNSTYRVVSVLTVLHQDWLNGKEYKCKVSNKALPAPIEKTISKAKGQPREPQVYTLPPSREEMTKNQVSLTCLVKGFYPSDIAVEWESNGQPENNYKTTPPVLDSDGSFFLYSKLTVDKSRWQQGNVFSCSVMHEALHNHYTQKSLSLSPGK
endpoint-label: Max. inhibition at 200 nM Fab [%] (%)
Numbers only, in %.

Fab #1 comprising a modified heavy chain constant region (Fab, V domains shown, Human Fab from the Ylanthia library; produced in HKB11 cells; also called Fab #1 mod; HC) VH: QVQLVQSGAEVKKPGASVKVSCKASGYTFTSHYMHWVRQAPGQGLEWMGLIEPSEGETEYAQRFQGRVTMTRDTSTSTVYMELSSLRSEDTAVYYCARDSSRSYPLGFDIWGQGTLVTVSS VL: QSVLTQPPSVSAAPGQKVTISCSGSSSNIGNNYVSWYQQLPGTAPKLLIYDNNKRPSGIPDRFSGSKSGTSATLGITGLQTEDEADYYCAAWDFRSSRWVFGGGTKLTVLG	77
Fab #2 comprising a modified heavy chain constant region (Fab, V domains shown, Human Fab from the Ylanthia library; produced in HKB11 cells; also called Fab #2 mod; HC) VH: QVQLVESGGGLVKPGGSLRLSCAASGFSFSDHYMSWIRQAPGKGLEWVSSVGSEGKFIDYAASVKGRFTISRDNAKNSLYLQMNSLRAEDTAVYYCARHYREFRWHYYYFDYWGQGTLVTVSS VL: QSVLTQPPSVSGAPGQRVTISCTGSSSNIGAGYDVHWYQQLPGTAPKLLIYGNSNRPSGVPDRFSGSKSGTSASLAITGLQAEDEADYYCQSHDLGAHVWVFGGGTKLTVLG	99
Fab #3 comprising a modified heavy chain constant region (Fab, V domains shown, Human Fab from the Ylanthia library; produced in HKB11 cells; also called Fab #3 mod; HC) VH: QVQLVESGGGLVKPGGSLRLSCAASGFSFGDYYVSWIRQAPGKGLEWVSAIGGSGSAVQYAESVKGRFTISRDNAKNSLYLQMNSLRAEDTAVYYCARHYREFRWHYYYFDYWGQGTLVTVSS VL: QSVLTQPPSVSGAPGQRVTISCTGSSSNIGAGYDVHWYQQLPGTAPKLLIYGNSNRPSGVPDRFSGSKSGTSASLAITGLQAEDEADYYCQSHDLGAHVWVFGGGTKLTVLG	100

IN: I have this binder here, Fab #4 comprising a modified heavy chain constant region (Fab, V domains shown, Human Fab from the Ylanthia library; produced in HKB11 cells; also called Fab #4 mod; HC) VH: QVQLVQSGAEVKKPGASVKVSCKASGGAFTSSYMHWVRQAPGQGLEWMGIIEPTGASTLYAQRFQGRVTMTRDTSTSTVYMELSSLRSEDTAVYYCARTGIALPLGFDLWGQGTLVTVSS VL: QSVLTQPPSVSAAPGQKVTISCSGSSSNIGNNYVSWYQQLPGTAPKLLIYDNNKRPSGIPDRFSGSKSGTSATLGITGLQTEDEADYYCAAWSTRFRWVFGGGTKLTVLG , and I need its recorded Max. inhibition at 200 nM Fab [%].
OUT: 67
